- Test system: 653999-131-R-J2-PDC complex spheroids, growth % test/control
- test.details: Anticancer human tumor 653999-131-R-J2-PDC patient-derived lung adenocarcinoma cell line growth inhibition [AhR]
- test.settings: curve of first compound; second compound 0.1 µM
observable: IC50 (nM)

Some solved cases for reference:
compound="Nc1ccccc1NC(=O)c1ccc(CNC(=O)OCc2cccnc2)cc1 + Cc1ccccc1N=Nc1ccc(NC(=O)c2ccnn2C)c(C)c1" endpoint_result=2500
compound="CC1COCCN1c1cc(-c2ccnn2C)c2ccnc(-c3ccn[nH]3)c2n1 (stereo not given) + Cc1ccccc1N=Nc1ccc(NC(=O)c2ccnn2C)c(C)c1" endpoint_result=168
compound="Nc1ccccc1NC(=O)c1ccc(CNC(=O)OCc2cccnc2)cc1 + CC(CO)NC(=O)c1cc(-c2ccc(Cl)cc2)nn(-c2cnn(C)c2)c1=O" endpoint_result=3830

I: CC[C@@]1(O)C(=O)OCc2c1cc1n(c2=O)Cc2cc3c(CN(C)C)c(O)ccc3nc2-1 + CC(CO)NC(=O)c1cc(-c2ccc(Cl)cc2)nn(-c2cnn(C)c2)c1=O
II: Nc1ccn(C2OC(CO)C(O)C2(F)F)c(=O)n1 (stereo not given) + Cc1cncc(-c2nc(NCCc3c[nH]c4ccccc34)c3ncn(C(C)C)c3n2)c1
Q: Name the one with the greater IC50 value, either I or II as given. Respond with the label that goes with your answer.
A: II

###

# viability, T/C annotations
- Tested on: 653999-131-R-J2-PDC complex spheroids, growth % test/control
- test.details: Anticancer human tumor 653999-131-R-J2-PDC cell line growth inhibition [AhR];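 note: spheroids exposed to agents for seven days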;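 for viability, T/C: 100% = DMSO vehicle control viability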
- test.settings: second compound 10 µM; first compound 3.16 µM; stronger effect = lower value
Numeric only. Scale: %

Some solved cases for reference:
compound="NS(=O)(=O)OCC1CC(n2ccc3c(NC4CCc5ccccc54)ncnc32)CC1O (stereo unspecified) + CC(CO)NC(=O)c1cc(-c2ccc(Cl)cc2)nn(-c2cnn(C)c2)c1=O" observable="viability, T/C" value_unit=% endpoint_result=51
compound="COc1ccc([C@@H](O)c2cc(-c3ncnc4cc(N5CCOCC5)ccc34)c(F)cc2Cl)nn1 + CC(CO)NC(=O)c1cc(-c2ccc(Cl)cc2)nn(-c2cnn(C)c2)c1=O" observable="viability, T/C" value_unit=% endpoint_result=59.5
compound="NS(=O)(=O)OCC1CC(n2ccc3c(NC4CCc5ccccc54)ncnc32)CC1O (stereo unspecified) + Cc1ccccc1N=Nc1ccc(NC(=O)c2ccnn2C)c(C)c1" observable="viability, T/C" value_unit=% endpoint_result=56.7
compound="Nc1ccn(C2OC(CO)C(O)C2(F)F)c(=O)n1 (stereo unspecified) + Cc1ccccc1N=Nc1ccc(NC(=O)c2ccnn2C)c(C)c1" observable="viability, T/C" value_unit=% endpoint_result=46.1
compound="COc1cc(C2c3cc4c(cc3C(OC3OC5COC(C)OC5C(O)C3O)C3COC(=O)C23)OCO4)cc(OC)c1O (stereo unspecified) + Cc1ccccc1N=Nc1ccc(NC(=O)c2ccnn2C)c(C)c1" observable="viability, T/C" value_unit=% endpoint_result=41.4

Q: Short answer please: viability, T/C, 653999-131-R-J2-PDC complex spheroids, growth % test/control, entry CC1(C)CCC(CN2CCN(c3ccc(C(=O)NS(=O)(=O)c4ccc(NCC5CCOCC5)c([N+](=O)[O-])c4)c(Oc4cnc5[nH]ccc5c4)c3)CC2)=C(c2ccc(Cl)cc2)C1 + Cc1ccccc1N=Nc1ccc(NC(=O)c2ccnn2C)c(C)c1
A: 81

Q: Short answer please: viability, T/C, 653999-131-R-J2-PDC complex spheroids, growth % test/control, entry COc1cc(C2c3cc4c(cc3C(OC3OC5COC(C)OC5C(O)C3O)C3COC(=O)C23)OCO4)cc(OC)c1O (stereo unspecified) + Cc1cncc(-c2nc(NCCc3c[nH]c4ccccc34)c3ncn(C(C)C)c3n2)c1
A: 31.6

Q: Short answer please: viability, T/C, 653999-131-R-J2-PDC complex spheroids, growth % test/control, entry Nc1ccn(C2OC(CO)C(O)C2(F)F)c(=O)n1 (stereo unspecified) + CC(CO)NC(=O)c1cc(-c2ccc(Cl)cc2)nn(-c2cnn(C)c2)c1=O
A: 51.7

Q: Short answer please: viability, T/C, 653999-131-R-J2-PDC complex spheroids, growth % test/control, entry COc1cccc2c1C(=O)c1c(O)c3c(c(O)c1C2=O)CC(O)(C(=O)CO)CC3OC1CC(N)C(O)C(C)O1 (stereo unspecified) + CC(CO)NC(=O)c1cc(-c2ccc(Cl)cc2)nn(-c2cnn(C)c2)c1=O
A: 9.25

Q: Short answer please: viability, T/C, 653999-131-R-J2-PDC complex spheroids, growth % test/control, entry COc1cc(Nc2ncc3c(n2)-c2ccc(Cl)cc2C(c2c(F)cccc2OC)=NC3)ccc1C(=O)O + Cc1cncc(-c2nc(NCCc3c[nH]c4ccccc34)c3ncn(C(C)C)c3n2)c1
A: 55.5

Q: Short answer please: viability, T/C, 653999-131-R-J2-PDC complex spheroids, growth % test/control, entry COc1cccc2c1C(=O)c1c(O)c3c(c(O)c1C2=O)CC(O)(C(=O)CO)CC3OC1CC(N)C(O)C(C)O1 (stereo unspecified) + Cc1ccccc1N=Nc1ccc(NC(=O)c2ccnn2C)c(C)c1
A: 8.54

Q: Short answer please: viability, T/C, 653999-131-R-J2-PDC complex spheroids, growth % test/control, entry COc1cc(Nc2ncc3c(n2)-c2ccc(Cl)cc2C(c2c(F)cccc2OC)=NC3)ccc1C(=O)O + CC(CO)NC(=O)c1cc(-c2ccc(Cl)cc2)nn(-c2cnn(C)c2)c1=O
A: 67.9
